Tested on: Enterobacter cloacae
Test: In vitro antibacterial activity against Enterobacter cloacae OMNFI 174
Format: functional
observable: MIC (µg/mL)

Recorded MIC, per entry:
{"columns": ["compound", "MIC (µg/mL)"],
 "data": [
  ["O=C(O)c1cn(C2CC2)c2cc(N3CCc4ccccc4C3)c(F)cc2c1=O", 1],
  ["Cc1c(N2CC(C)CC(C)C2)ccc2c(=O)c(C(=O)O)cn(C3CC3)c12 (stereo not given)", 4],
  ["Cc1c(N2CCCCC2)c(N)cc2c(=O)c(C(=O)O)cn(C3CC3)c12", 1],
  ["Cc1c(N2CCN(C)CC2)c(F)cc2c(=O)c(C(=O)O)cn(C3CC3)c12", 0.125]
]}

[P] Cc1c(N2CCN(C)CC2)c(N)cc2c(=O)c(C(=O)O)cn(C3CC3)c12
[Q] Cc1c(N2CCc3ccccc3C2)c(F)cc2c(=O)c(C(=O)O)cn(C3CC3)c12
[R] Cc1c(N2CCN(C)CC2)ccc2c(=O)c(C(=O)O)cn(C3CC3)c12
[S] Cc1c(N2CCSCC2)ccc2c(=O)c(C(=O)O)cn(C3CC3)c12
[T] Cc1c(N2CCc3ccccc3C2)ccc2c(=O)c(C(=O)O)cn(C3CC3)c12
*Q* Your job: order these 5 records by MIC, ascending. Provide your answer as the labels ordered per the instruction.
*A* T, P, R, Q, S

----------
Tested on: Klebsiella pneumoniae
Test: In vitro antibacterial activity against Klebsiella pneumoniae ATCC 10031
Assay type: functional
observable: MIC (µg/mL)

{"columns": ["compound", "assay.target", "MIC [µg/mL]"],
 "data": [
  ["Cc1c(N2CCc3ccccc3C2)c(F)cc2c(=O)c(C(=O)O)cn(C3CC3)c12", "Klebsiella pneumoniae", 0.06]
]}

[I] Cc1c(N2CCCC(CO)C2)ccc2c(=O)c(C(=O)O)cn(C3CC3)c12 (configuration not stated)
[II] Cc1c(N2CC(C)OC(C)C2)ccc2c(=O)c(C(=O)O)cn(C3CC3)c12 (configuration not stated)
[III] Cc1c(N2CCc3ccccc3C2)c(N)cc2c(=O)c(C(=O)O)cn(C3CC3)c12
[IV] CC(=O)O.Cc1c(N2CC[C@@H](N)C2)ccc2c(=O)c(C(=O)O)cn(C3CC3)c12
*Q* Your job: order these 4 records by MIC, ascending. Provide your answer as the labels ordered per the instruction.
*A* IV, III, I, II
(IV: 0.016 µg/mL, III: 0.03 µg/mL, I: 0.06 µg/mL, II: 0.125 µg/mL)

----------
Test system: Staphylococcus aureus
Assay: In vitro antibacterial activity against Staphylococcus aureus MPR 5
Format: functional
observable: MIC (µg/mL)

Recorded MIC, per entry:
{"columns": ["smiles.record", "unit.spec", "MIC"],
 "data": [
  ["Cc1c(N2CCN(C)CC2)c(F)cc2c(=O)c(C(=O)O)cn(C3CC3)c12", "µg/mL", 0.06],
  ["CC(=O)O.Cc1c(N2CC[C@@H](N)C2)ccc2c(=O)c(C(=O)O)cn(C3CC3)c12", "µg/mL", 0.125],
  ["O=C(O)c1cn(C2CC2)c2cc(N3CCCCC3)c(F)cc2c1=O", "µg/mL", 0.03]
]}

[1] Cc1c(N2CCc3ccccc3C2)ccc2c(=O)c(C(=O)O)cn(C3CC3)c12
[2] Cc1c(N2CCN(C)CC2)ccc2c(=O)c(C(=O)O)cn(C3CC3)c12
*Q* // compare: 1 vs 2 , metric MIC, want the smaller Please respond with the label that marks your chosen entry.
*A* 1

----------
System: Staphylococcus aureus
Test: In vitro antibacterial activity against Staphylococcus aureus M-R POMM 6214
Type: functional
observable: MIC (µg/mL)

Recorded MIC, per entry:
{"columns": ["compound", "assay.target", "numeric.readout"],
 "data": [
  ["Cc1c(N2CCCCC2)c(N)cc2c(=O)c(C(=O)O)cn(C3CC3)c12", "Staphylococcus aureus", 0.125],
  ["Cc1c(N2CCN(C)CC2)c(F)cc2c(=O)c(C(=O)O)cn(C3CC3)c12", "Staphylococcus aureus", 0.125],
  ["O=C(O)c1cn(C2CC2)c2cc(N3CCNCC3)c(F)cc2c1=O", "Staphylococcus aureus", 1],
  ["Cc1c(N2CCN(C)CC2)c(N)cc2c(=O)c(C(=O)O)cn(C3CC3)c12", "Staphylococcus aureus", 4],
  ["O=C(O)c1cn(C2CC2)c2cc(N3CCCCC3)c(F)cc2c1=O", "Staphylococcus aureus", 0.25],
  ["Cc1c(N2CCc3ccccc3C2)ccc2c(=O)c(C(=O)O)cn(C3CC3)c12", "Staphylococcus aureus", 0.25],
  ["O=C(O)c1cn(C2CC2)c2cc(N3CCc4ccccc4C3)c(F)cc2c1=O", "Staphylococcus aureus", 0.25],
  ["CC(=O)O.Cc1c(N2CC[C@@H](N)C2)ccc2c(=O)c(C(=O)O)cn(C3CC3)c12", "Staphylococcus aureus", 0.25],
  ["Cc1c(N2CCNCC2)ccc2c(=O)c(C(=O)O)cn(C3CC3)c12.Cl", "Staphylococcus aureus", 0.5]
]}

[P] Cc1c(N2CCC(N)C2)ccc2c(=O)c(C(=O)O)cn(C3CC3)c12 (configuration not stated)
[Q] Cc1c(N2CCN(C)CC2)ccc2c(=O)c(C(=O)O)cn(C3CC3)c12
[R] Cc1c(N2CC(C)OC(C)C2)ccc2c(=O)c(C(=O)O)cn(C3CC3)c12 (configuration not stated)
[S] CN1CCN(c2cc3c(cc2F)c(=O)c(C(=O)O)cn3C2CC2)CC1
*Q* Your job: order these 4 records by MIC, ascending. Provide your answer as the labels ordered per the instruction.
*A* R, P, Q, S

----------
Test system: Klebsiella pneumoniae
Assay: In vitro antibacterial activity against Klebsiella pneumoniae ATCC 10031
Type: functional
observable: MIC (µg/mL)

{"columns": ["compound", "MIC, µg/mL"],
 "data": [
  ["O=C(O)c1cn(C2CC2)c2cc(N3CCc4ccccc4C3)c(F)cc2c1=O", 0.125]
]}

[1] Cc1c(N2CCc3ccccc3C2)ccc2c(=O)c(C(=O)O)cn(C3CC3)c12
[2] Cc1c(N2CCN(C)CC2)c(N)cc2c(=O)c(C(=O)O)cn(C3CC3)c12
[3] Cc1c(N2CC(C)CC(C)C2)ccc2c(=O)c(C(=O)O)cn(C3CC3)c12 (stereo not given)
*Q* Rank order required: MIC, descending. Provide your answer as the labels ordered per the instruction.
*A* 3, 1, 2
(3: 0.5 µg/mL, 1: 0.125 µg/mL, 2: 0.03 µg/mL)

----------
Tested on: Escherichia coli
Test: In vitro antibacterial activity against Escherichia coli 120
Format: functional
observable: MIC (µg/mL)

{"columns": ["compound", "observable", "numeric.readout"],
 "data": [
  ["Cc1c(N2CCSCC2)ccc2c(=O)c(C(=O)O)cn(C3CC3)c12", "MIC", 0.25],
  ["Cc1c(N2CCc3ccccc3C2)ccc2c(=O)c(C(=O)O)cn(C3CC3)c12", "MIC", 2],
  ["Cc1c(N2CCCCC2)c(N)cc2c(=O)c(C(=O)O)cn(C3CC3)c12", "MIC", 0.5],
  ["Cc1c(N2CC(C)CC(C)C2)ccc2c(=O)c(C(=O)O)cn(C3CC3)c12 (configuration not stated)", "MIC", 1],
  ["Cc1c(N2CCc3ccccc3C2)c(F)cc2c(=O)c(C(=O)O)cn(C3CC3)c12", "MIC", 0.25]
]}

[I] Cc1c(N2CCC(C)CC2)ccc2c(=O)c(C(=O)O)cn(C3CC3)c12
[II] Cc1c(N2CCCCC2)ccc2c(=O)c(C(=O)O)cn(C3CC3)c12
[III] CC(=O)O.Cc1c(N2CC[C@@H](N)C2)ccc2c(=O)c(C(=O)O)cn(C3CC3)c12
[IV] Cc1c(N2CCc3ccccc3C2)c(N)cc2c(=O)c(C(=O)O)cn(C3CC3)c12
[V] O=C(O)c1cn(C2CC2)c2cc(N3CCCCC3)c(F)cc2c1=O
*Q* Rank order required: MIC, descending. Provide your answer as the labels ordered per the instruction.
*A* V, IV, I, II, III

[A] Cc1c(N2CCN(C)CC2)ccc2c(=O)c(C(=O)O)cn(C3CC3)c12
[B] Cc1c(N2CCCC(CO)C2)ccc2c(=O)c(C(=O)O)cn(C3CC3)c12 (configuration not stated)
*Q* Lab note: record which item had the higher MIC, A or B . Please respond with the label that marks your chosen entry.
*A* B
(B: 0.25 µg/mL, A: 0.06 µg/mL)

[1] Cc1c(N2CCN(C)CC2)c(N)cc2c(=O)c(C(=O)O)cn(C3CC3)c12
[2] O=C(O)c1cn(C2CC2)c2cc(N3CCc4ccccc4C3)c(F)cc2c1=O
*Q* Lab note: record which item had the higher MIC, 1 or 2 . Please respond with the label that marks your chosen entry.
*A* 2
